Values compiled from ChEMBL document CHEMBL1275401.

# Experiment Summary: Cmax in Beagle dog at 15 mg/kg, po
# Assay type: ADME, organism-based, Canis lupus familiaris
# Set-up: dose 15 mg/kg, route oral
# Settings: in vivo
Measurement Label: Cmax (ng/mL)
Give the value, in units of ng/mL, as a plain number.

# Cmax of CC(C)C(=O)OC[C@H]1O[C@@H](n2ccc(N)nc2=O)C2(CC2)[C@@H]1OC(=O)C(C)C = 6300

###

# Experiment Summary: Tmax in Sprague-Dawley rat at 10 mg/kg, po
# Format: ADME, organism-based
# Design: dose 10 mg/kg, route oral
# Settings: in vivo
Recorded Tmax by entry
Write down the numeric answer in min and omit the unit.

[
  {
    "Entry Smiles": "Nc1ccn([C@@H]2O[C@H](CO)[C@@H](O)C23CC3)c(=O)n1",
    "Tmax, min": 60
  }
]

Okay, next one:
get_value(item= CC(C)C(=O)O[C@@H]1[C@@H](CO)O[C@@H](n2ccc(N)nc2=O)C12CC2 , readout=Tmax) returns 42

###

# Experiment Summary: Cmax in Sprague-Dawley rat at 60 mg/kg, po
# Format: ADME, organism-based
# Design: dose 60 mg/kg, route oral
# Settings: in vivo
Measurement Label: Cmax (ng/mL)
// units = ng/mL; emit number, no label

The recorded Cmax for Nc1ccn([C@@H]2O[C@H](CO)[C@@H](O)C23CC3)c(=O)n1 is 527

###

# Experiment Summary: AUC (0 to 7 hrs) in Sprague-Dawley rat at 15 mg/kg, po
# Assay type: ADME, organism-based
# Design: time < 7 hr, dose 15 mg/kg, route oral
# Settings: plasma
Measurement Label: AUC(0-t) at 7 h (ng·h/mL)
Field format: number, assumed ng·h/mL, no unit text.

Field AUC(0-t) at 7 h (entry CC(C)C(=O)OC[C@H]1O[C@@H](n2ccc(N)nc2=O)C2(CC2)[C@@H]1OC(=O)C(C)C ) reads 7220

###

# Experiment Summary: Cmax in Beagle dog at 75 mg/kg, po
# Type: ADME, organism-based, Canis lupus familiaris
# Set-up: dose 75 mg/kg, route oral
# Settings: in vivo
Measurement Label: Cmax (ng/mL)
Kindly answer with a numeric value in ng/mL, unit omitted.

// CC(C)C(=O)OC[C@H]1O[C@@H](n2ccc(N)nc2=O)C2(CC2)[C@@H]1OC(=O)C(C)C : Cmax value = 42800

###

# Tested on: Hepatitis C virus
# Experiment Summary: Antiviral activity against Hepatitis C virus subtype 1b with adaptive mutations of E1202G, T1280I, K1846T […] infected in human HuH7 cells assessed as inhibition of viral replication after 3 days by luciferase assay
# Format: functional, organism-based, Hepacivirus hominis
# Settings: genotype 1b, Huh-7, 72 h
Below: a set of entries, each annotated with reported EC50.
Give just the numeric value; µM need not be written.

[
  {
    "Entry Smiles": "CC(C)C(=O)OC[C@H]1O[C@@H](n2ccc(N)nc2=O)C2(CC2)[C@@H]1OC(=O)C(C)C",
    "Measurement Label": "EC50",
    "Result Value": 20.3
  }
]

Briefly, EC50 measured for [N-]=[N+]=N[C@]1(CO)O[C@@H](n2ccc(N)nc2=O)[C@H](O)[C@@H]1O : 4.3

EC50 measured on C[C@@]1(F)[C@H](O)[C@@H](CO)O[C@H]1n1ccc(N)nc1=O = 1.9

So for Nc1ccn([C@@H]2O[C@H](CO)[C@@H](O)C23CC3)c(=O)n1 , the logged EC50 turned out to be 7.3

What the record says about CC(C)C(=O)O[C@@H]1[C@@H](CO)O[C@@H](n2ccc(N)nc2=O)C12CC2 : EC50 is 42.8

Recorded EC50 (compound C[C@@]1(O)[C@H](O)[C@@H](CO)O[C@H]1n1ccc(N)nc1=O ): 4.6

###

# Experiment Summary: AUC (0 to 24 hrs) in Sprague-Dawley rat at 90 mg/kg, po
# Format: ADME, organism-based
# Parameters: time < 24 hr, dose 90 mg/kg, route oral
# Settings: plasma
Measurement Label: AUC(0-t) at 24 h (µg·h/mL)
Report as a plain number; the unit µg·h/mL is understood.

Value of AUC(0-t) at 24 h reported for the compound CC(C)C(=O)OC[C@H]1O[C@@H](n2ccc(N)nc2=O)C2(CC2)[C@@H]1OC(=O)C(C)C is 40

###

# Experiment Summary: Cmax in Sprague-Dawley rat at 90 mg/kg, po
# Format: ADME, organism-based
# Set-up: dose 90 mg/kg, route oral
# Settings: in vivo
Measurement Label: Cmax (ng/mL)
Give the number; ng/mL is assumed, so skip it.

// CC(C)C(=O)OC[C@H]1O[C@@H](n2ccc(N)nc2=O)C2(CC2)[C@@H]1OC(=O)C(C)C : Cmax value = 11400

###

# Experiment Summary: Cmax in Sprague-Dawley rat at 15 mg/kg, po
# Assay type: ADME, organism-based
# Design: dose 15 mg/kg, route oral
# Settings: in vivo
Measurement Label: Cmax

CC(C)C(=O)OC[C@H]1O[C@@H](n2ccc(N)nc2=O)C2(CC2)[C@@H]1OC(=O)C(C)C yielded Cmax of 2390 ng/mL

###

# Experiment Summary: AUC (0 to 7 hrs) in Sprague-Dawley rat at 10 mg/kg, po
# Format: ADME, organism-based
# Parameters: time < 7 hr, dose 10 mg/kg, route oral
# Settings: plasma
Below, each entry is listed with its recorded AUC(0-t) at 7 h.
Report only the number, with the unit ng·h/mL understood.

[
  {
    "Entry Smiles": "CC(C)C(=O)O[C@@H]1[C@@H](CO)O[C@@H](n2ccc(N)nc2=O)C12CC2",
    "Unit Descriptor": "ng·h/mL",
    "AUC(0-t) at 7 h": 2620
  }
]

Query compound follows.
# compound Nc1ccn([C@@H]2O[C@H](CO)[C@@H](O)C23CC3)c(=O)n1 ; its AUC(0-t) at 7 h = 248

###

# Experiment Summary: AUC (0 to 7 hrs) in Sprague-Dawley rat at 60 mg/kg, po
# Format: ADME, organism-based
# Set-up: time < 7 hr, dose 60 mg/kg, route oral
# Settings: plasma
Measurement Label: AUC(0-t) at 7 h (ng·h/mL)
Please respond with the number in ng·h/mL and leave the unit unwritten.

Quick note, AUC(0-t) at 7 h for Nc1ccn([C@@H]2O[C@H](CO)[C@@H](O)C23CC3)c(=O)n1 landed at 1640

###

# Experiment Summary: Tmax in Sprague-Dawley rat at 60 mg/kg, po
# Assay type: ADME, organism-based
# Parameters: dose 60 mg/kg, route oral
# Settings: in vivo
Measurement Label: Tmax (h)
Report as a plain number; the unit h is understood.

The recorded Tmax for Nc1ccn([C@@H]2O[C@H](CO)[C@@H](O)C23CC3)c(=O)n1 is 1.3

###

# Experiment Summary: Tmax in Sprague-Dawley rat at 15 mg/kg, po
# Assay type: ADME, organism-based
# Design: dose 15 mg/kg, route oral
# Settings: in vivo
Measurement Label: Tmax
Remember to follow the number with its unit.

get_value(item= CC(C)C(=O)OC[C@H]1O[C@@H](n2ccc(N)nc2=O)C2(CC2)[C@@H]1OC(=O)C(C)C , readout=Tmax) returns 48 min
